Tested on: MCF7
assay.info: Antiproliferative activity against human MCF7 cells after 48 hrs by MTT assay
Format: functional
condition.info: MCF7, 48 h
Response field label takes yes (1) when GI50 is strictly below 200 nM and no (0) in all other cases.

Is it true that GI50 reported for O=C1OCC2=C1C(c1cc(Br)cc(Br)c1O)c1ccc3ccc(O)cc3c1N2 (racemic) is less than 200 nM?
yes (1)

Strictly below 200 nM in GI50? COc1cc(C2C3=C(COC3=O)Nc3[nH][nH]c(=O)c32)cc(OC)c1OC (racemic)
no (0)

Problem: For the compound COc1cc(C2C3=C(COC3=O)Nc3[nH]ncc32)cc(OC)c1OC (racemic) , is GI50 under 200 nM?
no (0)

Quick check: GI50 of CSc1nc(N)c2c(n1)NC1=C(C(=O)OC1)C2c1cc(Br)cc(Br)c1 (racemic) under 200 nM?
no (0)

Lab note: confirm whether the reported GI50 for this compound is below 200 nM, equality not counting. compound: Nc1cc2c(c3ccccc13)NC1=C(C(=O)OC1)C2c1cc(Br)cc(Br)c1 (racemic)
yes (1)

Please determine if O=C1OCC2=C1[C@@H](c1cc(Br)cc(Br)c1)c1ccc3ccccc3c1N2 is below 200 nM in terms of GI50.
no (0)

Strictly below 200 nM: is that where GI50 of O=C1OCC2=C1C(c1cc(Br)cc(Br)c1)c1c([nH][nH]c1=O)N2 (racemic) sits?
no (0)

Is 200 nM strictly greater than the compound's reported GI50? compound: COc1cc(C2C3=C(COC3=O)Nc3[nH]ncc32)cc(Br)c1OC (racemic)
no (0)

Strictly below 200 nM: is that where GI50 of COc1cc(C2C3=C(COC3=O)Nc3c2ccc2ccccc32)cc(Br)c1OC (racemic) sits?
yes (1)

In plain terms, does O=C1OCC2=C1C(c1cc(Br)cs1)c1cn[nH]c1N2 (racemic) come in under 200 nM for GI50?
no (0)

GI50 under 200 nM? Item: COc1cc(Br)cc(C2C3=C(COC3=O)Nc3c2ccc2ccc(O)cc32)c1O (racemic)
yes (1)

* * *

Test system: MCF7
assay.info: Antiproliferative activity against human MCF7 cells after 48 hrs by MTT assay
Type: functional
condition.info: MCF7, 48 h
property: GI50 (nM)
Report as a plain number; the unit nM is understood.

compound O=C1OCC2=C1C(c1cc(Br)cc(Br)c1)c1cn[nH]c1N2 (racemic) , GI50 observed: 25

Short answer for COc1cc(C2C3=C(COC3=O)Nc3ccc4ccccc4c32)cc(OC)c1OC (racemic) : GI50 was 121

// GI50 lookup, compound = O=C1OCC2=C1C(c1cc(Br)cs1)c1ccc3ccc(O)cc3c1N2 (racemic) , result: 3

Consider COc1cc(C2C3=C(COC3=O)Nc3c2ccc2ccc(O)cc32)cc(Br)c1OC (racemic) . Its measured GI50 is 3

Data point: O=C1OCC2=C1C(c1cc(Br)cc(Br)c1)c1ccc3c(O)cccc3c1N2 (racemic) ; GI50 = 23

Just so you know, measured GI50 for O=C1OCC2=C1C(c1cccc(Br)c1)c1cn[nH]c1N2 (racemic) came out at 100

For COc1cc([C@@H]2c3cc4c(cc3[C@H](O)[C@H]3COC(=O)[C@H]23)OCO4)cc(OC)c1OC [PODOFILOX] the compound record lists GI50 as 10

Notebook: O=C1OCC2=C1C(c1cc(Br)ccc1O)c1ccc3ccc(O)cc3c1N2 (racemic) , GI50 read as 3

Looking up O=C1OCC2=C1C(c1cc(Br)ccc1O)c1ccc3ccccc3c1N2 (racemic) , I see its GI50 listed as 3
